Catalogue of Ratio IC50 readings, one per entry.
species: Homo sapiens; experiment: Selectivity index, ratio of IC50 for butyrylcholinesterase (unknown origin) to IC50 for acetylcholinesterase (unknown origin)
value-kind: Ratio IC50

1) COc1cc(/C=C/C(=O)Nc2ccccc2)ccc1OCCN(C)C
1
2) COc1cc(/C=C/C(=O)Nc2ccccc2)ccc1OCCCCCN1CCCCC1
1.23
3) CCN(CC)CCCOc1ccc(/C=C/C(=O)Nc2ccccc2)cc1OC
0.71
4) CCOC(=O)/C=C/c1ccc(OCCCCCCN2CCCCC2)c(OC)c1
15.8
5) COc1cc(/C=C/C(=O)Nc2ccccc2)ccc1OCCCCCCCCCCN1CCCC1
0.22
6) CCN(CC)CCCCCCOc1ccc(/C=C/C(=O)Nc2ccccc2)cc1OC
2.66
